Species: Rattus norvegicus
protocol-description: DrugMatrix - Regimen: Daily Repeat
Assay type: toxicity, organism-based, Sprague-Dawley
Parameters: regimen Daily Repeat, gender Male, age 6-8 weeks
study-conditions: in vivo, po, 1500 mg/kg, 120 h, tissue Plasma, route oral GAVAGE, dose level High, time 5 day, vehicle .5 % CMC
What POTASSIUM was measured for each of the following?
Kindly provide the numeric value in MEQ/L only, without the unit symbol.

Q) Sample NS(=O)(=O)c1cc2c(cc1Cl)NCNS2(=O)=O [HYDROCHLOROTHIAZIDE] — what was its POTASSIUM?
A) 6.18

Q) Quick one: POTASSIUM of `O=C1CCc2cc(OCCCCc3nnnn3C3CCCCC3)ccc2N1` ?
A) 7.27

Q) Which POTASSIUM reading was recorded for the compound `CCOC(=O)[C@H](CCc1ccccc1)N[C@@H](C)C(=O)N1[C@H](C(=O)O)C[C@@H]2CCC[C@@H]21` ?
A) 7.1

Q) // POTASSIUM lookup, key: `COC(=O)c1ccc(O)cc1`
A) 6.62
